Target: human recombinant progesterone receptor-B (PRB) (Homo sapiens)
Construct: purchased Invitrogen (Carlsbad, Calif.)
Test: Radioactive ligand binding test, PRB cytosol, [3H]-Prog
Details: [3H]-Prog about 5 nM, PRB cytosol, 4° C.; Cheng-Prusoff, Kd about 3.5 nM; read-out: PR (Ki: nM)
Excerpt: Radioactive Ligand Binding Test Using Cytosols of Human Glucocorticoids Receptor, Progesterone Receptor and Mineralocorticoid Receptor The procedures described in Neuroimmunomodulation (1994, 1, p. 66-73) and Invest. Opthalmol. Vis. Sci. (1996, 37, p. 805-813) were modified and used. […]
# Ki listing for each entry below

**Q:** What Ki value was documented for this compound, `CC1(C)Nc2c(cc(-c3cccc4nccn34)c3occc23)C(C)(C)C1=O` ?
**A:** 1050 nM

**Q:** Which Ki is reported for this compound? `CC1(C)Nc2c(cc(-c3cccc4ncccc34)c3c2CCC3)C(C)(C)C1=O`
**A:** > 1250 nM

**Q:** Find the recorded Ki belonging to `CC1(C)Nc2c(cc(-c3ccnc4ncccc34)c3c2CCC3)C(C)(C)C1=O` and report it.
**A:** > 1250 nM

====

Reported pKi values for a set of compounds
target: human recombinant progesterone receptor-B (PRB) (Homo sapiens, UniProt P06401); construct: purchased Invitrogen (Carlsbad, Calif.); assay: Radioactive ligand binding test, PRB cytosol, [3H]-Prog
Sequence (P06401 whole entry): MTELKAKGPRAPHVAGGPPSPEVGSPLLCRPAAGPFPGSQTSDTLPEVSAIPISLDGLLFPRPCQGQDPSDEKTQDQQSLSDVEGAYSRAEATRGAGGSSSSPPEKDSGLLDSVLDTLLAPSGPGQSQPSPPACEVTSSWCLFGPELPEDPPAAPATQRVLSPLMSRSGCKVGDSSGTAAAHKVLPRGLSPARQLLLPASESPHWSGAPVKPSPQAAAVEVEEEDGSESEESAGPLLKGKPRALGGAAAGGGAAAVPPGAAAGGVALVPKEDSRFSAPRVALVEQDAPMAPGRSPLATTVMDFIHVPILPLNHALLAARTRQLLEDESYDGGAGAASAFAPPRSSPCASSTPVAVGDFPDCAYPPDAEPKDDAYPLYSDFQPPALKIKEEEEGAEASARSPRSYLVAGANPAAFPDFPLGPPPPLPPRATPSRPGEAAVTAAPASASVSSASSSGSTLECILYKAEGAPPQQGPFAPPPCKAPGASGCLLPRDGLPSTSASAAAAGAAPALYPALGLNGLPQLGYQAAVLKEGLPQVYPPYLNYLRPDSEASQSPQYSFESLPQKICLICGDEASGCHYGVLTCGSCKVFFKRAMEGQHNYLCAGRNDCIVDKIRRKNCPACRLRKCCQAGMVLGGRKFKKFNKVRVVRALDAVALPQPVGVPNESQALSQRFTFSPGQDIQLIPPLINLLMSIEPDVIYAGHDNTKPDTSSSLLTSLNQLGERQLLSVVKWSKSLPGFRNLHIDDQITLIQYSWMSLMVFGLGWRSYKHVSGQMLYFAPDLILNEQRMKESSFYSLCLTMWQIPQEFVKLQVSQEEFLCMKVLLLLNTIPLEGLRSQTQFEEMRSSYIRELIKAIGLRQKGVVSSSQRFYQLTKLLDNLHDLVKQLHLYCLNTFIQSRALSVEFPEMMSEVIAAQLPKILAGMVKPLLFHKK
pKi: −log10 of the molar value.

CC1(C)Nc2c(cc(-c3cccc4nncn34)c3c2CCC3)C(C)(C)C1=O [Example 17]: < 5.90

Next item in the queue.
**Q:** Quick one: pKi of C=CCC1(C)C(=O)C(C)(C)Nc2c1cc(-c1cccc3cc[nH]c13)c1c2OCO1 (centres unmarked) [Example 78] ?
**A:** < 5.90

====

Biological target: human recombinant glucocorticoids receptor (GR) (Homo sapiens)
Sequence (P04150 1-777): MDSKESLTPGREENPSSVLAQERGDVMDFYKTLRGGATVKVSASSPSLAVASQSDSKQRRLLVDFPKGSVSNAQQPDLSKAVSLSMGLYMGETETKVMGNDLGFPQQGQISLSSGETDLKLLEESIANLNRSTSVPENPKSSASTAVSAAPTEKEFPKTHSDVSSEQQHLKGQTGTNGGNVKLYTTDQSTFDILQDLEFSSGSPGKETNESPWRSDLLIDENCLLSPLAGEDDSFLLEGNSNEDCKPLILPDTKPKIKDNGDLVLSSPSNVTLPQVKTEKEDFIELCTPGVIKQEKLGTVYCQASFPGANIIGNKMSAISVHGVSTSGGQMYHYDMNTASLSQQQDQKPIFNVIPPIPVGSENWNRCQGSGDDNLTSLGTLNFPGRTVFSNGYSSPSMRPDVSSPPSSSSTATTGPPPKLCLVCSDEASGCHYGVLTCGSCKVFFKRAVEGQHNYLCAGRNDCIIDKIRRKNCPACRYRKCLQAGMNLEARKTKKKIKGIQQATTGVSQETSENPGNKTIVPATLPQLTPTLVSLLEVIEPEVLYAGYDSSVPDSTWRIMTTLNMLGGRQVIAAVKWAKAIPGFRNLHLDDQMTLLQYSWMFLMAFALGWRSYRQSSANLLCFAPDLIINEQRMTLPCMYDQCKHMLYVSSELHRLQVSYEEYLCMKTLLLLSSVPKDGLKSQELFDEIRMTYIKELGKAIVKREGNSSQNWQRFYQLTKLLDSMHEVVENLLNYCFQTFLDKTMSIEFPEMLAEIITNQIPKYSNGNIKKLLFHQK
Assay: Radioactive ligand binding test, GR cytosol, [3H]-Dex
Details: [3H]-Dex about 5 nM, GR cytosol, 4° C.; Cheng-Prusoff, Kd about 3.1 nM; read-out: GR (Ki: nM)
READOUT TYPE: Ki (nM)
Reply numerically in nM, unit not repeated.

Worked cases, Ki given:
Cc1noc(C)c1-c1cc2c(c3c1C(=O)CC3)NC(C)(C)C(=O)C2(C)C: 60
CC1(C)Nc2c(cc(-c3cccc4ncccc34)c3c2CCC3)C(C)(C)C1=O: 70
CC1(C)Nc2c(cc(-c3cccc4nccn34)c3c2CCC3)C(C)(C)C1=O: 11

**Q:** Looking for the measured Ki of `Cc1noc(C)c1-c1cc2c(c3c1CCC3)NC(C)(C)C(=O)C2(C)C` , can you help?
**A:** 15

====

Overview of recorded Ki for various molecules
Biological target: human recombinant glucocorticoids receptor (GR) (Homo sapiens, UniProt P04150)
Sequence (P04150 1-777): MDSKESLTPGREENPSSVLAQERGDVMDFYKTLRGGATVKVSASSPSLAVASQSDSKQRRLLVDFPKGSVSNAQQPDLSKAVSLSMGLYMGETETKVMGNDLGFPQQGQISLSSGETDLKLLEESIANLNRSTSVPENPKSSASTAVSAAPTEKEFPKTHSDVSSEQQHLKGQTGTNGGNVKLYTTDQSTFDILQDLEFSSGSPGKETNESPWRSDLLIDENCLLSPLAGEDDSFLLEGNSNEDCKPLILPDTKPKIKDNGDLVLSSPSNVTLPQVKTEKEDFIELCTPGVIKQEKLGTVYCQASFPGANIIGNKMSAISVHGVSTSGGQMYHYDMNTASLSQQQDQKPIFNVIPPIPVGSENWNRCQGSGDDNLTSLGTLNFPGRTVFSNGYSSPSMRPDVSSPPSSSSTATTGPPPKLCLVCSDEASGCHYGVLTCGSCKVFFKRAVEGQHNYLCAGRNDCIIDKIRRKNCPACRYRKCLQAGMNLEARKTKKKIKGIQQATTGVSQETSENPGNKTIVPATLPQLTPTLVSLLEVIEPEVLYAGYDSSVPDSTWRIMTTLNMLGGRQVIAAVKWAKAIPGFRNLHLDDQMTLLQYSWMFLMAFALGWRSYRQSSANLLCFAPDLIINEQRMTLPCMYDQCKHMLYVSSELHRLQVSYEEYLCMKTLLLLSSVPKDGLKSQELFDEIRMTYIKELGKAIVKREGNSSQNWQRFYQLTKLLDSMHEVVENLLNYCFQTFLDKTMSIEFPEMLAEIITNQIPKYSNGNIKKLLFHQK
Assay: Radioactive ligand binding test, GR cytosol, [3H]-Dex
Details: [3H]-Dex about 5 nM, GR cytosol, 4° C.; Cheng-Prusoff, Kd about 3.1 nM; read-out: GR (Ki: nM)
Could you give the number and then its unit, please?

Example entries and their recorded answers appear below.
CC1(C)Nc2c(cc(-c3cccc4nccn34)c3occc23)C(C)(C)C1=O: 15 nM
CCC1(C)C(=O)C(C)(C)Nc2c1cc(-c1cccc3nccn13)c1c2CCC1 (stereo not shown): 12 nM
C=CCC1(C)C(=O)C(C)(C)Nc2c1cc(-c1cccc3nccn13)c1c2CCC1 (stereo not shown): 14 nM

Now for the molecule whose Ki we want.
**Q:** Requested field: Ki. Item: `C=C1C(C)(C)Nc2c(cc(-c3c(C)ncn3C)c3c2CCC3)C1(C)C`
**A:** 58 nM
